# Test system: IGROV1 complex spheroids (HUVEC, MSC), viability % test/control
# EXPERIMENTAL_DETAILS: Anticancer human tumor IGROV1 cell line growth inhibition [GQUAD];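 note: spheroids exposed to compounds for 7 days before readout; 100% = DMSO vehicle control viability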
# PROTOCOL_CONDITIONS: second compound 0.316 µM; first compound 0.316 µM; hits give low values
Exercise: for every item that follows, state its recorded viability, T/C.
Could you give me the number in %? Just the number is fine.

Form field viability, T/C, entry COc1ncnc(C2CC2)c1-c1ncc2cnn(Cc3ccc(-c4nc(C(F)(F)F)cn4C(C)C)cc3)c2n1 + Cc1cnc(CNC(=O)c2c(=O)c3ccc(N4CCCN(C)CC4)nc3n3c2sc2ccccc23)cn1 : 26.9

GET /value?item= O=C(NO)c1cnc(N2CCN(S(=O)(=O)c3ccc4ccccc4c3)CC2)nc1 + Cc1[nH]c2ccc(F)cc2c1-c1nc2c3cccnc3c3ncccc3c2[nH]1 &field=viability, T/C returns 17.2

Reported viability, T/C of COc1cc(C2c3cc4c(cc3C(OC3OC5COC(C)OC5C(O)C3O)C3COC(=O)C23)OCO4)cc(OC)c1O (stereo not given) + CN(C)c1ccc(Nc2c3ccc(NC(=O)CCN4CCCC4)cc3nc3cc(NC(=O)CCN4CCCC4)ccc23)cc1 : 23.2

Note to self: viability, T/C recorded for CC[C@@]1(O)C(=O)OCc2c1cc1n(c2=O)Cc2cc3c(CN(C)C)c(O)ccc3nc2-1 + Cc1cnc(CNC(=O)c2c(=O)c3ccc(N4CCCN(C)CC4)nc3n3c2sc2ccccc23)cn1 was 8.87

GET /value?item= C#Cc1c(F)ccc2cc(O)cc(-c3ncc4c(N5CC6CCC(C5)N6)nc(OCC56CCCN5CC(F)C6)nc4c3F)c12 (stereo not given) + CN(C)c1ccc(Nc2c3ccc(NC(=O)CCN4CCCC4)cc3nc3cc(NC(=O)CCN4CCCC4)ccc23)cc1 &field=viability, T/C returns 76.3

# viability, T/C (compound: COc1ccc([C@@H](O)c2cc(-c3ncnc4cc(N5CCOCC5)ccc34)c(F)cc2Cl)nn1 + Cc1[nH]c2ccc(F)cc2c1-c1nc2c3cccnc3c3ncccc3c2[nH]1 ) is 82.6

The compound CCCS(=O)(=O)Nc1ccc(F)c(C(=O)c2c[nH]c3ncc(-c4ccc(Cl)cc4)cc23)c1F + CN(C)c1ccc(Nc2c3ccc(NC(=O)CCN4CCCC4)cc3nc3cc(NC(=O)CCN4CCCC4)ccc23)cc1 showed viability, T/C equal to 98

Lab book: viability, T/C of O=c1[nH]cc(F)c(=O)[nH]1 + CN(C)c1ccc(Nc2c3ccc(NC(=O)CCN4CCCC4)cc3nc3cc(NC(=O)CCN4CCCC4)ccc23)cc1 noted as 96.8

GET /value?item= Cc1cccc(N(C)C(=O)C2C(O)CCN2c2nc(C)cc(C(F)(F)F)c2C#N)c1 (stereo not given) + CN(C)c1ccc(Nc2c3ccc(NC(=O)CCN4CCCC4)cc3nc3cc(NC(=O)CCN4CCCC4)ccc23)cc1 &field=viability, T/C returns 88.5

Summary for this compound, CCCS(=O)(=O)Nc1ccc(F)c(C(=O)c2c[nH]c3ncc(-c4ccc(Cl)cc4)cc23)c1F + Cc1cnc(CNC(=O)c2c(=O)c3ccc(N4CCCN(C)CC4)nc3n3c2sc2ccccc23)cn1 : viability, T/C is 25.4

Notebook: CC(C)n1c(=O)n(C)c2cnc3cc(F)c(-c4ccc(OCCCN5CCCCC5)nc4)cc3c21 + CN(C)c1ccc(Nc2c3ccc(NC(=O)CCN4CCCC4)cc3nc3cc(NC(=O)CCN4CCCC4)ccc23)cc1 , viability, T/C read as 83.4

# compound CCc1c2c(nc3ccc(O)cc13)-c1cc3c(c(=O)n1C2)COC(=O)[C@]3(O)CC + Cc1[nH]c2ccc(F)cc2c1-c1nc2c3cccnc3c3ncccc3c2[nH]1 ; its viability, T/C = 1.81

The compound listed as C=CC(=O)N1CCN(c2nc(=O)n(-c3c(C)ccnc3C(C)C)c3nc(-c4c(O)cccc4F)c(F)cc23)C(C)C1 (stereo not given) + Cc1[nH]c2ccc(F)cc2c1-c1nc2c3cccnc3c3ncccc3c2[nH]1 has a reported viability, T/C of 76.2

GET /value?item= CCc1c2c(nc3ccc(O)cc13)-c1cc3c(c(=O)n1C2)COC(=O)[C@]3(O)CC + Cc1cnc(CNC(=O)c2c(=O)c3ccc(N4CCCN(C)CC4)nc3n3c2sc2ccccc23)cn1 &field=viability, T/C returns 2.05

// sample CC(=O)O[C@H]1C(=O)[C@@]2(C)[C@H]([C@H](OC(=O)c3ccccc3)[C@]3(O)C[C@H](OC(=O)[C@H](O)[C@@H](NC(=O)c4ccccc4)c4ccccc4)C(C)=C1C3(C)C)[C@]1(OC(C)=O)CO[C@@H]1C[C@@H]2O + Cc1cnc(CNC(=O)c2c(=O)c3ccc(N4CCCN(C)CC4)nc3n3c2sc2ccccc23)cn1 , its viability, T/C was 5.21

Per the records, this compound ( COc1ncnc(C2CC2)c1-c1ncc2cnn(Cc3ccc(-c4nc(C(F)(F)F)cn4C(C)C)cc3)c2n1 + CN(C)c1ccc(Nc2c3ccc(NC(=O)CCN4CCCC4)cc3nc3cc(NC(=O)CCN4CCCC4)ccc23)cc1 ) has viability, T/C equal to 103

The reported viability, T/C of the compound CC(=O)O[C@H]1C(=O)[C@@]2(C)[C@H]([C@H](OC(=O)c3ccccc3)[C@]3(O)C[C@H](OC(=O)[C@H](O)[C@@H](NC(=O)c4ccccc4)c4ccccc4)C(C)=C1C3(C)C)[C@]1(OC(C)=O)CO[C@@H]1C[C@@H]2O + Cc1[nH]c2ccc(F)cc2c1-c1nc2c3cccnc3c3ncccc3c2[nH]1 was 3.47

Query Cn1ncnc1[C@H]1c2n[nH]c(=O)c3cc(F)cc(c23)N[C@@H]1c1ccc(F)cc1 + Cc1[nH]c2ccc(F)cc2c1-c1nc2c3cccnc3c3ncccc3c2[nH]1 yields viability, T/C of 27.5

What the record says about CC1COCCN1c1cc(C2(O)CC3CCC(C2)O3)c2cnn(-c3ccn[nH]3)c2n1 (stereo not given) + Cc1[nH]c2ccc(F)cc2c1-c1nc2c3cccnc3c3ncccc3c2[nH]1 : viability, T/C is 4.88

Per the records, this compound ( Cc1[nH]c2ccccc2c1CCNCc1ccc(/C=C/C(=O)NO)cc1 + CN(C)c1ccc(Nc2c3ccc(NC(=O)CCN4CCCC4)cc3nc3cc(NC(=O)CCN4CCCC4)ccc23)cc1 ) has viability, T/C equal to 0.38
